Data provenance: patent US20130330346A1

Reported % inhibition of max by item:
Biological target: T1, Human CXCR2 (human, UniProt P25025 1-360)
T1 construct: Some cell lines carry an N-terminal 3xHA tag; also called hCXCR2; huCXCR2
T1 sequence: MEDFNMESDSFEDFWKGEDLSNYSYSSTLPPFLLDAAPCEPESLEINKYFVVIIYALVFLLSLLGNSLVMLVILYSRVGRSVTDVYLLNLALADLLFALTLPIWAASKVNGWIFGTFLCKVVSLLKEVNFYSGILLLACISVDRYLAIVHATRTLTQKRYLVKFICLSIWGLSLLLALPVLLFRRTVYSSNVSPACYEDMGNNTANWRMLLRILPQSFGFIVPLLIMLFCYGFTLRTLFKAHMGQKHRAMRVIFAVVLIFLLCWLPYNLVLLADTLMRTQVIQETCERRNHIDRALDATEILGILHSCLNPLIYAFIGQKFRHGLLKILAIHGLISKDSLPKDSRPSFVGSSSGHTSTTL
Experiment: FACS competition vs 3 nM FMAT-Blue Gro-α
Value Type: % inhibition of max (%)

{"columns": ["Binder", "Value Type", "Endpoint Unit", "Result Number"],
 "data": [
  ["CXCR20027 (bispecific antibody, Two different VHH joined by a GlySer linker; also called 163E3-35GS-163D2; not shown: C-terminal c-myc tag and His6 tag coded by pAX100) EVQLVESGGGLVQPGGSLRLSCVASGRIFSSNAMGWFRQAPGKEREFVAAITWRSGGSAYYADSAKGRFTISRDNAKNTVYLQMNSLKPEDTAVYYCAAGGSSWLSFPPDYWGQGTQVTVSSGGGGSGGGGSGGGGSGGGGSGGGGSGGGGSGGGGSEVQLVESGGGLVQAGGSLRLSCAASGRTFSDYAMGWFRQAPGKEREFVAAITWNGGRVFYTASVKGRFTISRDNAKNTMYLQMNSLKPEDTAVYYCAADKDRRTDYLGHPVAYWGQGTQVTVSS", "% inhibition of max", "%", 100],
  ["CXCR20011 (VHH, Bivalent: two VHH joined by a GlySer linker; also called 97A9-35GS-97A9; not shown: C-terminal c-myc tag and His6 tag coded by pAX100) EVQLVESGGGLVQPGGSLRLSCVASGSIVRINTMGWYRQTPGKQRELVADITSGGNINYIDAVKGRFTISRDNTKNTVYLQMNSLKPEDTAVYYCNAEIVVLVGVWTQRARTGNYWGQGTQVTVSSGGGGSGGGGSGGGGSGGGGSGGGGSGGGGSGGGGSEVQLVESGGGLVQPGGSLRLSCVASGSIVRINTMGWYRQTPGKQRELVADITSGGNINYIDAVKGRFTISRDNTKNTVYLQMNSLKPEDTAVYYCNAEIVVLVGVWTQRARTGNYWGQGTQVTVSS", "% inhibition of max", "%", 99],
  ["CXCR20021 (bispecific antibody, Biparatopic: two VHH joined by a GlySer linker; also called 127D1-35GS-163E3; 127D1-163E3; not shown: C-terminal c-myc tag and His6 tag coded by pAX100) EVQLVESGGGLVQAGESLRLSCAASGSTFDFKVMGWYRQPPGKQREGVAAIRLSGNMHYAESVKGRFTISKANAKNTVYLQMNSLRPEDTAVYYCKVNIRGQDYWGQGTQVTVSSGGGGSGGGGSGGGGSGGGGSGGGGSGGGGSGGGGSEVQLVESGGGLVQPGGSLRLSCVASGRIFSSNAMGWFRQAPGKEREFVAAITWRSGGSAYYADSAKGRFTISRDNAKNTVYLQMNSLKPEDTAVYYCAAGGSSWLSFPPDYWGQGTQVTVSS", "% inhibition of max", "%", 99.5],
  ["CXCR20029 (other, Biparatopic: two VHH joined by a GlySer linker; also called 163E3-35GS-54B12; not shown: C-terminal c-myc tag and His6 tag coded by pAX100) EVQLVESGGGLVQPGGSLRLSCVASGRIFSSNAMGWFRQAPGKEREFVAAITWRSGGSAYYADSAKGRFTISRDNAKNTVYLQMNSLKPEDTAVYYCAAGGSSWLSFPPDYWGQGTQVTVSSGGGGSGGGGSGGGGSGGGGSGGGGSGGGGSGGGGSEVQLVESGGGLVQAGGSLTLSCAVSGSTFRINTMGWYRRAPGKQRELVAARDRGGYINYVDSVKGRFTVSRDNAKPTMYLQMNSLKPEDTAVYYCHAGTQDRTGRNFDRWGQGTQVTVSS", "% inhibition of max", "%", 98.5],
  ["CXCR20017 (other, Two different VHH joined by a GlySer linker; also called 97A9-35GS-137B7; not shown: C-terminal c-myc tag and His6 tag coded by pAX100) EVQLVESGGGLVQPGGSLRLSCVASGSIVRINTMGWYRQTPGKQRELVADITSGGNINYIDAVKGRFTISRDNTKNTVYLQMNSLKPEDTAVYYCNAEIVVLVGVWTQRARTGNYWGQGTQVTVSSGGGGSGGGGSGGGGSGGGGSGGGGSGGGGSGGGGSEVQLVESGGGLVQPGGSVRLSCVASGIIFRLSALGWTRQGPGKAREWVAGINSDGTTNYADPVKGRFTISRDNAKNTIYLHMDMLKPEDTAVYYCASGKYRGQGTQVTVSS", "% inhibition of max", "%", 99]
]}
